Data origin, for the record: ChEMBL document CHEMBL1152465

Kindly supply the reported selectivity ratio values for the records listed here.
testProtocol: Therapeutic index, ratio of TC50 human HeLa cells expressing CD4-LTR to EC50 for HIV1 entry inhibition in human HeLa cells expressing CD4-LTR
Type: cell-based
appliedConditions: read-out: TI

[[record]]
smilesrecord = "CCc1c(Sc2cc(C)cc(C)c2)n(CC2CC=CC2)c(=O)[nH]c1=O"
reportedresult = 148


Working through the 3 molecules below one at a time, give selectivity ratio for each.
1. CCc1c(Sc2cc(C)cc(C)c2)n(CC2CC2)c(=O)[nH]c1=O
2. Cc1cc(C)cc(C(=O)c2c(C(C)C)c(=O)[nH]c(=O)n2CCC2=CCCC2)c1
3. CCc1c(C(=O)c2cc(C)cc(C)c2)n(CCC2=CCCC2)c(=O)[nH]c1=O

Result ::
[1580, 1040, 421]

Query :: Which selectivity ratio is listed for Cc1cc(C)cc(C(=O)c2c(C(C)C)c(=O)[nH]c(=O)n2CC2CCCCC2)c1 ?
Result :: 127
